tested on: primary keratinocytes; experiment: % change in live cells vs DMSO control; higher = less cytotoxic; conditions: 0.082305 µM; donor: 5; time (h post treatment): 20
observation-type: % change in live cells

Which % change in live cells is reported with primary keratinocytes for this entry: CC(=O)O[C@H]1C[C@H](O[C@H]2[C@@H](O)C[C@H](O[C@H]3[C@@H](O)C[C@H](O[C@H]4CC[C@@]5(C)[C@H](CC[C@@H]6[C@@H]5C[C@@H](O)[C@]5(C)[C@@H](C7=CC(=O)OC7)CC[C@]65O)C4)O[C@@H]3C)O[C@@H]2C)O[C@H](C)[C@H]1O[C@@H]1O[C@H](CO)[C@@H](O)[C@H](O)[C@H]1O [Lanatoside C] ?
-3.67%

Give recorded % change in live cells with primary keratinocytes for the following compound: Cc1cccc(C)c1N(CC(=O)Nc1ccc(-c2ncon2)cc1)C(=O)C1CCS(=O)(=O)CC1 [Amenamevir]
-7.67%

Provide the documented % change in live cells with primary keratinocytes as the system for Cc1nc(N(C)C(=O)Cc2ccc(-c3ccccn3)cc2)sc1S(N)(=O)=O [Pritelivir]
-1.67%

Give recorded % change in live cells with primary keratinocytes for the following compound: C=CC(=O)N1CC/C(=C\c2ccc(F)c([N+](=O)[O-])c2)C(=O)/C(=C/c2ccc(F)c([N+](=O)[O-])c2)C1 [VLX1570]
-6.33%

Hello, I am looking for reported % change in live cells with primary keratinocytes for O=C(/C=C\n1cnc(-c2cc(C(F)(F)F)cc(C(F)(F)F)c2)n1)NNc1ccccn1 [Verdinexor] . Could you help?
-5.67%

Item Nc1ccn([C@@H]2O[C@H](CO)[C@@H](O)C2(F)F)c(=O)n1 [Gemcitabine] with primary keratinocytes - % change in live cells?
-51.3%

Query for primary keratinocytes: what % change in live cells does the record show for COc1ccc(-c2nc(N3CCOCC3)c3sc(CN(C)c4ncc(C(=O)NO)cn4)cc3n2)cn1 [Fimepinostat] ?
-8%

----------
system: HSV-1 K26-GFP infected 3D skin equivalent; experiment: % change of tdTomato fibroblast signal relative to infected DMSO control; higher = higher signal (negative = inhibition / toxicity); details: 0.041152 µM; time (h post infection): 48; model: ALI
Kindly supply the reported % change of tdTomato fibroblast signal values for the records listed here.
Express it in %; write the number only.

Look up % change of tdTomato fibroblast signal: Nc1ccn([C@@H]2O[C@H](CO)[C@@H](O)C2(F)F)c(=O)n1
-3.97

For the molecule shown here, Cc1cccc(C)c1N(CC(=O)Nc1ccc(-c2ncon2)cc1)C(=O)C1CCS(=O)(=O)CC1 , give the reported % change of tdTomato fibroblast signal.
0.354

For C=CC(=O)N1CC/C(=C\c2ccc(F)c([N+](=O)[O-])c2)C(=O)/C(=C/c2ccc(F)c([N+](=O)[O-])c2)C1 , what is its reported % change of tdTomato fibroblast signal?
-0.238

I'd like to know its % change of tdTomato fibroblast signal. The molecule in question is CC(=O)O[C@H]1C[C@H](O[C@H]2[C@@H](O)C[C@H](O[C@H]3[C@@H](O)C[C@H](O[C@H]4CC[C@@]5(C)[C@H](CC[C@@H]6[C@@H]5C[C@@H](O)[C@]5(C)[C@@H](C7=CC(=O)OC7)CC[C@]65O)C4)O[C@@H]3C)O[C@@H]2C)O[C@H](C)[C@H]1O[C@@H]1O[C@H](CO)[C@@H](O)[C@H](O)[C@H]1O [Lanatoside C]
2.37

May I ask what % change of tdTomato fibroblast signal has been recorded for O=C(/C=C\n1cnc(-c2cc(C(F)(F)F)cc(C(F)(F)F)c2)n1)NNc1ccccn1 [Verdinexor] ?
8.09

Recorded % change of tdTomato fibroblast signal of CC(C)c1cnn2c(NCc3ccccc3-n3cccn3)nc(OC3CCCNC3)nc12 (stereo not given) , please.
-1.16

I would be grateful if you could share the reported % change of tdTomato fibroblast signal for O=C(Nc1ccc([N+](=O)[O-])cc1Cl)c1cc(Cl)ccc1O [Niclosamide] .
8.37

# query: % change of tdTomato fibroblast signal of entry COc1ccc(-c2nc(N3CCOCC3)c3sc(CN(C)c4ncc(C(=O)NO)cn4)cc3n2)cn1 [Fimepinostat]
-7.82

Entry CC1(C)CC(=O)c2c(C(F)(F)F)nn(-c3ccc(C(N)=O)c(N[C@H]4CC[C@H](O)CC4)c3)c2C1 has what % change of tdTomato fibroblast signal?
0.975

Recorded % change of tdTomato fibroblast signal of Cc1nc(N(C)C(=O)Cc2ccc(-c3ccccn3)cc2)sc1S(N)(=O)=O , please.
16.3

----------
system: primary keratinocytes; assay: % change in live cells vs DMSO control; higher = less cytotoxic; conditions: 0.740741 µM; donor: 4; time (h post treatment): 20
Give true when the value for % change in live cells is at least -10%. Give false when it is less.

Does % change in live cells meet or surpass -10% for C=CC(=O)N1CC/C(=C\c2ccc(F)c([N+](=O)[O-])c2)C(=O)/C(=C/c2ccc(F)c([N+](=O)[O-])c2)C1 ?
false

Form field: % change in live cells at least -10%? Entry: O=C(/C=C\n1cnc(-c2cc(C(F)(F)F)cc(C(F)(F)F)c2)n1)NNc1ccccn1 [Verdinexor]
false

Does the reported % change in live cells for CC(C)c1cnn2c(NCc3ccccc3-n3cccn3)nc(OC3CCCNC3)nc12 (stereo not given) fall at or above the -10% mark?
false

State whether the measured % change in live cells reaches -10%, counting equality as reaching it, for Cc1cccc(C)c1N(CC(=O)Nc1ccc(-c2ncon2)cc1)C(=O)C1CCS(=O)(=O)CC1
true

Answer whether % change in live cells of Nc1ccn([C@@H]2O[C@H](CO)[C@@H](O)C2(F)F)c(=O)n1 is greater than or equal to -10%.
false

Exam item: decide whether the reported % change in live cells for O=C(Nc1ccc([N+](=O)[O-])cc1Cl)c1cc(Cl)ccc1O [Niclosamide] is at least -10%.
false

Record Cc1nc(N(C)C(=O)Cc2ccc(-c3ccccn3)cc2)sc1S(N)(=O)=O ; criterion: % change in live cells no lower than -10%. Met?
true

Is it the case that CC1(C)CC(=O)c2c(C(F)(F)F)nn(-c3ccc(C(N)=O)c(N[C@H]4CC[C@H](O)CC4)c3)c2C1 has % change in live cells reaching or exceeding -10%?
false

Can CC(=O)O[C@H]1C[C@H](O[C@H]2[C@@H](O)C[C@H](O[C@H]3[C@@H](O)C[C@H](O[C@H]4CC[C@@]5(C)[C@H](CC[C@@H]6[C@@H]5C[C@@H](O)[C@]5(C)[C@@H](C7=CC(=O)OC7)CC[C@]65O)C4)O[C@@H]3C)O[C@@H]2C)O[C@H](C)[C@H]1O[C@@H]1O[C@H](CO)[C@@H](O)[C@H](O)[C@H]1O [Lanatoside C] be said to have % change in live cells at or above -10%?
false

Please tell me: is the molecule COc1ccc(-c2nc(N3CCOCC3)c3sc(CN(C)c4ncc(C(=O)NO)cn4)cc3n2)cn1 [Fimepinostat] at or over -10% in terms of % change in live cells?
false

----------
system: HSV-1 K26-GFP infected 3D skin equivalent; assay: % activity on HSV-1 GFP signal (0 = infected DMSO control, -100 = uninfected control); higher = higher signal (negative = inhibition / toxicity); conditions: 3.33333 µM; time (h post infection): 48; model: submerged
I'd appreciate it if you could supply % activity on HSV-1 GFP signal values for the items below.
Respond with the figure and its unit, in that order.

What % activity on HSV-1 GFP signal value was documented for this compound, C=CC(=O)N1CC/C(=C\c2ccc(F)c([N+](=O)[O-])c2)C(=O)/C(=C/c2ccc(F)c([N+](=O)[O-])c2)C1 [VLX1570] ?
-17.6%

Recorded % activity on HSV-1 GFP signal for Cc1cccc(C)c1N(CC(=O)Nc1ccc(-c2ncon2)cc1)C(=O)C1CCS(=O)(=O)CC1 [Amenamevir] , please?
-89.2%

What value of % activity on HSV-1 GFP signal has been recorded for this entry: O=C(Nc1ccc([N+](=O)[O-])cc1Cl)c1cc(Cl)ccc1O [Niclosamide]
-92.9%

Data request, read-out % activity on HSV-1 GFP signal, for COc1ccc(-c2nc(N3CCOCC3)c3sc(CN(C)c4ncc(C(=O)NO)cn4)cc3n2)cn1 [Fimepinostat]
-75.6%

May I ask what % activity on HSV-1 GFP signal has been recorded for O=C(/C=C\n1cnc(-c2cc(C(F)(F)F)cc(C(F)(F)F)c2)n1)NNc1ccccn1 [Verdinexor] ?
-65.7%

What % activity on HSV-1 GFP signal value was documented for this compound, Nc1ccn([C@@H]2O[C@H](CO)[C@@H](O)C2(F)F)c(=O)n1 [Gemcitabine] ?
-99%

Could you share which % activity on HSV-1 GFP signal value was measured for Cc1nc(N(C)C(=O)Cc2ccc(-c3ccccn3)cc2)sc1S(N)(=O)=O [Pritelivir] ?
-96.7%

Fill in the blank: the reported % activity on HSV-1 GFP signal of CC(=O)O[C@H]1C[C@H](O[C@H]2[C@@H](O)C[C@H](O[C@H]3[C@@H](O)C[C@H](O[C@H]4CC[C@@]5(C)[C@H](CC[C@@H]6[C@@H]5C[C@@H](O)[C@]5(C)[C@@H](C7=CC(=O)OC7)CC[C@]65O)C4)O[C@@H]3C)O[C@@H]2C)O[C@H](C)[C@H]1O[C@@H]1O[C@H](CO)[C@@H](O)[C@H](O)[C@H]1O [Lanatoside C] is ____.
-104%

State the recorded % activity on HSV-1 GFP signal for this entry: CC(C)c1cnn2c(NCc3ccccc3-n3cccn3)nc(OC3CCCNC3)nc12 (stereo not given) [LDC4297]
-74.5%

Which measured % activity on HSV-1 GFP signal value corresponds to CC1(C)CC(=O)c2c(C(F)(F)F)nn(-c3ccc(C(N)=O)c(N[C@H]4CC[C@H](O)CC4)c3)c2C1 [SNX-2112] ?
-105%
